These entries and their values trace back to PubChem BioAssay (NCI).

System: OVCAR-4 ovarian
Assay: NCI-60 one-dose screen, 48 h (100 = growth as untreated, 0 = no growth, -100 = all killed)
Details: 10 µM unless noted
Compounds without any hit were thinned out: in the full panel of roughly 83,000, 20% have a hit.
Documented growth across a set of compounds

{"COMPOUND": "O=C(Nc1ccc(OS(=O)(=O)c2ccc(F)cc2)cc1)C1CCCCCC1", "growth (%)": 98.5}
{"COMPOUND": "CC(C)=CC(=O)OCC(=O)O[C@@H]1C[C@]2(C(C)C)O[C@@]1(C)[C@@H]1CC[C@@H](C)[C@H]1[C@@H]2OC(=O)/C=C/c1ccccc1", "growth (%)": 96.5}
{"COMPOUND": "O=C1c2c(c3c4ccccc4[nH]c3c3ccc4ccccc4c23)C(=O)N1CCN1CCNCC1", "growth (%)": 12.9}
{"COMPOUND": "c1ccc(Cn2cc3c(c2)-c2oncc2CC3)cc1", "growth (%)": 64.1}
{"COMPOUND": "Nc1ncnc2c1N=C(c1ccc(Br)cc1)CC(c1cccc(Nc3ccnc4cc(C(F)(F)F)ccc34)c1)N2 (stereo not drawn)", "growth (%)": 76.8}
{"COMPOUND": "O=C(Nc1ccccc1O)c1ccc(CNC(=O)c2sccc2Nc2ccnc(C(F)(F)F)c2)cc1", "growth (%)": 48.3}
{"COMPOUND": "COC(=O)/C=C1/SC(=Nc2ccc(C(F)(F)F)cc2)N(CCc2c[nH]c3ccc(O)cc23)C1=O", "growth (%)": -45.6}
{"COMPOUND": "N#Cc1c(-c2ccccc2)cc(-c2ccc(Nc3nc(Nc4ccc(Cl)cc4)nc(Nc4ccc(Cl)cc4)n3)cc2)nc1N", "growth (%)": -15.2}
{"COMPOUND": "Cc1ccc(C)n1-c1ccccc1-n1c(C)ccc1C", "growth (%)": 105}
{"COMPOUND": "N#Cc1nc(-c2ccc(Cl)cc2)oc1S(=O)(=O)N1CCN(c2ccc(F)cc2)CC1", "growth (%)": 106}
{"COMPOUND": "N#CC1=C(N)Oc2c(sc3c(Br)cccc23)C1c1ccc(Cl)cc1 (stereo not drawn)", "growth (%)": 61.2}
{"COMPOUND": "O=C(N/N=C/c1ccc(Cl)cc1)c1[nH]c2ccc(Cl)cc2c1-c1ccccc1", "growth (%)": 41.4}
{"COMPOUND": "O=[N+]([O-])c1cccc(-c2nc3cc4nc5ccccc5[nH]c4cc3n2)c1", "growth (%)": 98.3}

---

System: A549/ATCC NSCLC
Assay: NCI-60 one-dose screen, 48 h (100 = growth as untreated, 0 = no growth, -100 = all killed)
Settings: 10 µM unless noted
About 83,000 compounds went through this panel and 20% of them were active in at least one assay; those are over-represented in the sample as a whole.
growth vs 60%: less than gives YES; not less than gives NO.

{"COMPOUND": "Nc1[nH]n2cc(-c3ccccc3)nc2c1N=Nc1ccc(S(N)(=O)=O)cc1", "ANSWER LABEL": "YES"}
{"COMPOUND": "C#CCOc1cccc(Nc2ncnc3ccc(NC(=O)C=C)cc23)c1", "ANSWER LABEL": "YES"}
{"COMPOUND": "O=C(CSC(=S)n1cnnc1)NC(=O)c1ccccc1", "ANSWER LABEL": "NO"}
{"COMPOUND": "CC1CCN(CCOc2ccc(CNc3ccc4nc(CCC5CCCCC5)[nH]c4c3)cc2)CC1", "ANSWER LABEL": "YES"}
{"COMPOUND": "O=S(=O)(Nc1ccc(F)cc1F)c1ccc(-c2cnc(C3CC3)o2)cc1", "ANSWER LABEL": "YES"}
{"COMPOUND": "Cc1cc(C(=O)O)c(C)n1-c1cccc(C(=O)O)c1", "ANSWER LABEL": "NO"}
{"COMPOUND": "COc1ccc(OC)c(-c2nc(SCC(=O)c3ccc(C#N)cc3)[nH]c(=O)c2C#N)c1", "ANSWER LABEL": "NO"}
{"COMPOUND": "c1ccc(Cn2cc3c(c2)-c2oncc2CC3)cc1", "ANSWER LABEL": "YES"}
{"COMPOUND": "Cc1ccc(NC(=O)c2sc3nc(C)c(Br)c(C)c3c2N)cc1", "ANSWER LABEL": "NO"}
{"COMPOUND": "CCNCCNc1cc(-c2ccc(C(F)(F)F)cc2)c(C#N)c2nc3ccccc3n12", "ANSWER LABEL": "YES"}
{"COMPOUND": "O=C(Nc1cccc2ccccc12)NC1CC1", "ANSWER LABEL": "NO"}
{"COMPOUND": "CCCCCCCCCCC(CN(CC)CC)C(O)c1ccccc1 (stereo not drawn)", "ANSWER LABEL": "YES"}
{"COMPOUND": "COc1cc2oc(-c3cccc(NC(=O)c4ccccc4)c3)cc(=O)c2c(OC)c1OC", "ANSWER LABEL": "NO"}
{"COMPOUND": "OCCn1cc(-c2nc(-c3c[nH]c4ncccc34)cs2)c2ccccc21", "ANSWER LABEL": "NO"}
{"COMPOUND": "O=C1C(Cl)=C(Nc2ccc(S(=O)(=O)N3CCOCC3)cc2)C(=O)c2ccccc21", "ANSWER LABEL": "NO"}
{"COMPOUND": "COc1ccc(CNc2c3ccccc3nc3ccccc23)cc1", "ANSWER LABEL": "YES"}
{"COMPOUND": "O=c1scc(-c2ccc(C(F)(F)F)cc2)s1", "ANSWER LABEL": "NO"}
{"COMPOUND": "CC(=O)N1N=C(c2ccc(C(F)(F)F)c(F)c2)CC1c1[nH]c(C)c(C(=O)NCC(F)(F)F)c1C (stereo not drawn)", "ANSWER LABEL": "YES"}
{"COMPOUND": "C=CCOC(=O)Nc1cccn([C@H](Cc2ccccc2)C(=O)NCCC(C)C)c1=O", "ANSWER LABEL": "NO"}
{"COMPOUND": "Nc1n[nH]c2cccc(C#Cc3cccc(NC(=O)c4cc(F)cc(C(F)(F)F)c4)c3)c12", "ANSWER LABEL": "NO"}
{"COMPOUND": "CSc1nc(N)c(NS(=O)(=O)c2ccc(C(C)=O)cc2)c(=O)[nH]1", "ANSWER LABEL": "NO"}
{"COMPOUND": "C=C(CBr)[C@@H]1CC[C@]2(C(=O)O)CC[C@]3(C)[C@H](CC[C@@H]4[C@@]5(C)CCC(=O)C(C)(C)[C@@H]5CC[C@]43C)[C@@H]12", "ANSWER LABEL": "YES"}
{"COMPOUND": "Cc1cc(=O)n(C(=O)Nc2ccccc2Cl)c2cc(O)ccc12", "ANSWER LABEL": "NO"}
{"COMPOUND": "CCOC(=O)NC(C)C", "ANSWER LABEL": "NO"}
{"COMPOUND": "Nc1nc(N)c(-c2ccc(Cl)c(Cl)c2)c(CBr)n1", "ANSWER LABEL": "YES"}
{"COMPOUND": "COC(=O)c1cc(N=C2NC(=O)/C(=C/C=C/c3ccccc3)S2)ccc1O", "ANSWER LABEL": "YES"}
{"COMPOUND": "COc1cc(OC)c(/C=C/C(=O)c2c(OC)cccc2OC)c(OC)c1", "ANSWER LABEL": "YES"}
{"COMPOUND": "C=C(C)[C@@H]1CC[C@]2(CO)CC[C@]3(C)[C@H](CC[C@@H]4[C@@]5(C)CC[C@H](NCO)C(C)(C)[C@@H]5CC[C@]43C)[C@@H]12", "ANSWER LABEL": "YES"}
{"COMPOUND": "O=C(N/N=C/c1ccc(Cl)cc1)c1[nH]c2ccc(Cl)cc2c1-c1ccccc1", "ANSWER LABEL": "YES"}
{"COMPOUND": "CC(C)c1ccc(Cc2cnc(NC(=O)c3cc(Br)cs3)s2)cc1", "ANSWER LABEL": "YES"}
{"COMPOUND": "COC1=CC(c2ccc[nH]2)=N/C1=C\\c1[nH]c(C)c(CC(=O)NCc2ccccc2)c1C", "ANSWER LABEL": "YES"}
{"COMPOUND": "CCCc1c(OC(=O)c2ccccc2)nc2[nH]c(=O)sc2c1C", "ANSWER LABEL": "NO"}
